B1: TPR t1 (parent)
chain: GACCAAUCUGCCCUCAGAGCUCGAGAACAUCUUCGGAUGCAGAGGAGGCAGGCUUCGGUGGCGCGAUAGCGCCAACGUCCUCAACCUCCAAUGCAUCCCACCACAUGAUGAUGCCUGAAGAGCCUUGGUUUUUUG

variants of: B1; experiment: polymerase ribozyme fitness, log enrichment relative to wild type (log ratio); higher = more active; in vitro selection for triplet polymerase activity
# key: entry, value: polymerase ribozyme fitness (log ratio)

mutation.id | polymerase ribozyme fitness (log ratio)
C88U A121C | 1.77
C8U G48C C56A | -0.762
A2G C12G G17A U54C C88U A91U C101U A105U C114G U131A | -5.89
C8U C73A | 1.41
C3U C20G | -3.47
A41U C64U C73U U106C | -1.79
C82G U109C | -5.03
A2G G77U C86G G135U | -2.95
A37U C56G U87G | -1.26
C8A | 0.459
A2U G52C | -3.28
C85A C99U | -4.7
C13U G35U | -3.47
U81G C124A G128C U130G | -2.26
G42U C56A | -3.39
C8G A68G | -2.09
C34G G48U G122A | -7.95
C40U G42A C101G C114A | -5.28
G48C C72G | -0.77
A27U C97U U130C | -3.37
